Recorded values, source patent US4771055A.

Endpoint: MIC. System: Enterobacter cloacae MA 2646. Items follow.

These recorded examples may help you get a feel for the data.
| molecule | MIC |
| --- | --- |
| NCC1CCN(c2c(F)cc3c(=O)c(C(=O)O)cn(C4CC4)c3c2F)C1 (centres unmarked) [Compound A, reference compound] | 0.8 µg/mL |
| CC1(CN)CCN(c2c(F)cc3c(=O)c(C(=O)O)cn(C4CC4)c3c2F)C1 (centres unmarked) [Example 1] | 0.025 µg/mL |
| CC1(CN)CCN(c2c(F)c(N)c3c(=O)c(C(=O)O)cn(C4CC4)c3c2F)C1 (centres unmarked) [Example 2] | 0.1 µg/mL |
| CC1(CN)CCN(c2nc3c(cc2F)c(=O)c(C(=O)O)cn3C2CC2)C1 (centres unmarked) [Example 3] | 0.1 µg/mL |

Now look at this one.
Prompt line: Look at this molecule and give its reported MIC. CC1(CN)CCN(c2c(F)cc3c(=O)c(C(=O)O)cn(C4CC4)c3c2Cl)C1 (centres unmarked) [Example 4]
Response line: 0.05 µg/mL

###

system: Pseudomonas aeruginosa UI-18; assay: In vitro antibacterial activity, MIC, microtitration dilution method; format: cell-based; conditions: UI18, read-out: Minimal Inhibitory Concentration MIC
outcomeMeasure: MIC (µg/mL)
# value in µg/mL; strip the unit string

| compound | testedSystem | MIC [µg/mL] |
| --- | --- | --- |
| NCC1CCN(c2c(F)cc3c(=O)c(C(=O)O)cn(C4CC4)c3c2F)C1 (centres unmarked) [Compound A, reference compound] | Pseudomonas aeruginosa UI-18 | 0.8 |
| CC1(CN)CCN(c2nc3c(cc2F)c(=O)c(C(=O)O)cn3C2CC2)C1 (centres unmarked) | Pseudomonas aeruginosa UI-18 | 0.8 |
| CC1(CN)CCN(c2c(F)cc3c(=O)c(C(=O)O)cn(C4CC4)c3c2Cl)C1 (centres unmarked) | Pseudomonas aeruginosa UI-18 | 0.2 |
| CC1(CN)CCN(c2c(F)cc3c(=O)c(C(=O)O)cn(C4CC4)c3c2F)C1 (centres unmarked) | Pseudomonas aeruginosa UI-18 | 0.4 |

Then there is this compound:
Prompt line: Would you kindly share the measured MIC for CC1(CN)CCN(c2c(F)c(N)c3c(=O)c(C(=O)O)cn(C4CC4)c3c2F)C1 (centres unmarked) ?
Response line: 0.8

###

tested on: Escherichia coli Vogel
outcomeMeasure: MIC (µg/mL)
Write the answer as a number in µg/mL, unit excluded.

Example results:
| compound | MIC, µg/mL |
| --- | --- |
| CC1(CN)CCN(c2c(F)c(N)c3c(=O)c(C(=O)O)cn(C4CC4)c3c2F)C1 (centres unmarked) [Example 2] | 0.1 |
| CC1(CN)CCN(c2c(F)cc3c(=O)c(C(=O)O)cn(C4CC4)c3c2F)C1 (centres unmarked) [Example 1] | 0.05 |
| NCC1CCN(c2c(F)cc3c(=O)c(C(=O)O)cn(C4CC4)c3c2F)C1 (centres unmarked) [Compound A, reference compound] | 0.2 |

Prompt line: Item CC1(CN)CCN(c2nc3c(cc2F)c(=O)c(C(=O)O)cn3C2CC2)C1 (centres unmarked) [Example 3] with Escherichia coli Vogel - MIC?
Response line: 0.4

Prompt line: Enter reported MIC observed with Escherichia coli Vogel for CC1(CN)CCN(c2c(F)cc3c(=O)c(C(=O)O)cn(C4CC4)c3c2Cl)C1 (centres unmarked) [Example 4]
Response line: 0.025

###

system: Streptococcus pyogenes C-203
outcomeMeasure: MIC (µg/mL)
Answer with a number only, understood to be in µg/mL.

// worked examples, MIC included
| molecule | outcomeMeasure | number |
| --- | --- | --- |
| CC1(CN)CCN(c2nc3c(cc2F)c(=O)c(C(=O)O)cn3C2CC2)C1 (centres unmarked) [Example 3] | MIC | 0.05 |
| NCC1CCN(c2c(F)cc3c(=O)c(C(=O)O)cn(C4CC4)c3c2F)C1 (centres unmarked) [Compound A, reference compound] | MIC | 0.012 |
| CC1(CN)CCN(c2c(F)c(N)c3c(=O)c(C(=O)O)cn(C4CC4)c3c2F)C1 (centres unmarked) [Example 2] | MIC | 0.013 |

Prompt line: Quick one: MIC for CC1(CN)CCN(c2c(F)cc3c(=O)c(C(=O)O)cn(C4CC4)c3c2Cl)C1 (centres unmarked) [Example 4] ?
Response line: 0.013

Prompt line: Look up MIC: CC1(CN)CCN(c2c(F)cc3c(=O)c(C(=O)O)cn(C4CC4)c3c2F)C1 (centres unmarked) [Example 1]
Response line: 0.025
